Values were extracted from the supplement of paper PMC6555819.

I'd be grateful if you could share measured PBM binding z-score for these entries.
System: PPARa:RXRa (NR concentration 270 nM, RXRa partner concentration 90 nM)
Measurement Notes: PBM binding z-score (relative to random genomic background probes); higher = stronger binding; sequences stand for … in GC…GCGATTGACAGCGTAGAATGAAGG

[ask] Look up PBM binding z-score: GCTAGCAGGCCATTTGGGTCACTCATTGACGGGC
[reply] 1

[ask] Look up PBM binding z-score: TCAGACAGGTGAGGGTAACTCAGGTACGCAGTCG
[reply] 0.983

[ask] Look up PBM binding z-score: TCTTGTAGATCAAGCAGGTTGAGAAAGCCTGAGT
[reply] 0.441

[ask] Look up PBM binding z-score: TCTATTAGGTGATTAGGGCAACCGAAACAGCGGA
[reply] 1.86

[ask] Look up PBM binding z-score: CGTCCAAGGTCAATGCTTGGTCAGTGAAAGCATT
[reply] 4.9

[ask] Look up PBM binding z-score: CAGCCTAGGTCAGGGCCAGAATAGGAGGAACGTT
[reply] 2.04

[ask] Look up PBM binding z-score: AGTCAAAGTTCATCTAGGTTACGTAAGATATGCT
[reply] 4.96

[ask] Look up PBM binding z-score: CGTCAAAGTTCAAGGTAACGCAACAGAAAGCAGC
[reply] 4.51

[ask] Look up PBM binding z-score: TCTATTAGTTGAAGGGGAACCGACGAGTCCGTTT
[reply] 1.23

[ask] Look up PBM binding z-score: AGGACGAGGGCAATGAGTTGATAGCACGGGTGGC
[reply] 0.903

[ask] Look up PBM binding z-score: CCGAGTATGTTATGGGGCATTCAGGCAACGGTGA
[reply] 0.665

[ask] Look up PBM binding z-score: CGTCCAAGGTCAGAGAGGTCGGTGAATGCCGAGT
[reply] 3.87

[ask] Look up PBM binding z-score: AGAATGAGGGTATTAAGATCAGGGAATTGCGGTC
[reply] 0.659

[ask] Look up PBM binding z-score: ATATGTAGGTTAGCTGGGGGCATTCAGACTAGGC
[reply] 4.09

[ask] Look up PBM binding z-score: CCGACTGGGGCATCAGGTTACCATAAGCCAGCCC
[reply] 0.743

[ask] Look up PBM binding z-score: CCTACTGGGCCAAGGTAATTGATCAGTCAAAGCA
[reply] 0.508

[ask] Look up PBM binding z-score: CAAACTAGGTCAAAGGGCAAAGTCGAGCCAACCA
[reply] 6.94

[ask] Look up PBM binding z-score: TCTTGTAGATCAACAGGAGGTTTAGAAAGATCGA
[reply] 0.152

[ask] Look up PBM binding z-score: AGAATGAGGTTATACGTAGAGCAGGGAAGAAAGT
[reply] 2.98

[ask] Look up PBM binding z-score: CCTGCTAGGTCAATGGTCACCTAAAGCAGCTCGC
[reply] 3.68

[ask] Look up PBM binding z-score: AGTCACAGTTCACTAGGTAACGTAAGATTCAGCT
[reply] 2.84

[ask] Look up PBM binding z-score: CCAGACAGGCGAGAAGGTAACTCAGCCTCGATTA
[reply] -0.764

[ask] Look up PBM binding z-score: GCTTACGGGCCAAAGGTTATAGCATGAATAGAAT
[reply] 4.59

[ask] Look up PBM binding z-score: CCTTACGGGTCACTGAGAGGTTATAGCATTTGGA
[reply] 5.58

[ask] Look up PBM binding z-score: ATCTCTAGGTAAAAGTTCAATGAATCCCGAGGAT
[reply] 4.88

[ask] Look up PBM binding z-score: TCGAGGAGGTTAGGGGCATTCAGAATGGCGTCGA
[reply] 1.94
